assay: Azithromycin pulmonary tissue pharmacokinetics in mice; format: in vivo; details: female, CF-1, mouse, lung (pulmonary tissue), 33 mg/kg; Pulmonary PK; total dose 100 mg/kg oral; 3 days of dosing, 33.3 mg/kg/dose
VALUE KIND: Cmax (ng/mL)

[[record]]
compound = "CC[C@H]1OC(=O)[C@H](C)[C@@H](O[C@H]2C[C@@](C)(OC)[C@@H](O)[C@H](C)O2)[C@H](C)[C@@H](O[C@@H]2O[C@H](C)C[C@H](N(C)C)[C@H]2O)[C@](C)(O)C[C@@H](C)CN(C)[C@H](C)[C@@H](O)[C@]1(C)O [Azithromycin]"
value_kind = "Cmax"
observed_value = 28000


Values from patent US6987093B2
